Measured values drawn from the supplement of paper PMC6555819 for this set.

Tested on: PXR:RXRa (NR concentration 270 nM, RXRa partner concentration 90 nM)
protocol.summary: PBM binding z-score (relative to random genomic background probes); higher = stronger binding; sequences stand for … in GC…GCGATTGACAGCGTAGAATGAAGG
// map PBM binding z-score to label using I (below 0.7), II (0.7 to below 2), III (2 or more)

Exam item: Which class is correct for the following sequence? "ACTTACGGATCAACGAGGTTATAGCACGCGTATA"
Marked response: II

Exam item: And what about the sequence "TCGACTAGGTTACCAATGGGGCATTCAGCTTTCT" ?
Marked response: I

Exam item: And what about the sequence "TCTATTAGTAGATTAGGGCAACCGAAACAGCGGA" ?
Marked response: I

Exam item: And what about the sequence "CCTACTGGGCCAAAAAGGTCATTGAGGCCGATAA" ?
Marked response: III
